log10(IC50) reference
molecular target: His-GST-TVMV-hRIPK1(1-324) (Homo sapiens); construct: The coding region of human RIPK1(1-324) flanked by NdeI site at 5′ end; made in house; host or cells: Spodoptera frugiperda Sf9 insect cells (baculovirus, Bac-to-Bac); assay: biochemical; assay type: binding; conditions: HTRF probe displacement, 1 h at rt; read-out: RIPK1 IC50
Sequence (Q13546 1-324): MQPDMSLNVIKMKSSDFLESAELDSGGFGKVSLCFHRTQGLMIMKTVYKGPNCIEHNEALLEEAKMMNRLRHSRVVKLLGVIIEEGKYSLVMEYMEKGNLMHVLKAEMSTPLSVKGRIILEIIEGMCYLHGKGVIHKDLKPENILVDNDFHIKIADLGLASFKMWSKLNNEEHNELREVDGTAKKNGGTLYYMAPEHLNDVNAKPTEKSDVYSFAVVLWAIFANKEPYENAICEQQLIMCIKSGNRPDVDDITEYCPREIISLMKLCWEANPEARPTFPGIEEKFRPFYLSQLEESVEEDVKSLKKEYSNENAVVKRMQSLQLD
Form field - Quantity: IC50; Unit: nM; Scale: log10

compound	target_or_system	measured_result
Nc1nc2cc(-c3ccc(Cl)c(C(=O)NCC[C@@H](O)c4ccc(Cl)cc4)c3F)ccn2n1	His-GST-TVMV-hRIPK1(1-324) (Homo sapiens)	0.67
Cc1ccc(-c2ccn3nc(N)nc3c2)c(F)c1C(=O)NCCC(C)(O)c1ccc(Cl)cc1 (racemic) [Example 17]	His-GST-TVMV-hRIPK1(1-324) (Homo sapiens)	0.28
CC(O)(c1ccc(F)cc1)C(F)(F)CNC(=O)c1c(Cl)ccc(-c2ccn3nc(N)nc3c2)c1F (stereo not shown) [Example 87]	His-GST-TVMV-hRIPK1(1-324) (Homo sapiens)	0.93

For Nc1nc2cc(-c3ccc(Cl)c(C(=O)NCCC(O)c4ccc(F)cc4)c3F)ccn2n1 (single isomer, unassigned) [Example 79] on His-GST-TVMV-hRIPK1(1-324) (Homo sapiens), measured log10(IC50) was 0.68

For Cc1cc(F)c(-c2ccn3nc(N)nc3c2)cc1C(=O)NCCC(O)c1ccc(F)cc1 (stereo not shown) [Example 8] on His-GST-TVMV-hRIPK1(1-324) (Homo sapiens), measured log10(IC50) was 0.71

====

tested on: MLKL phosphorylation in HT29-L23 human colorectal adenocarcinoma cells; test: MLKL phosphorylation high-content assay; type: cell-based; conditions: Homo sapiens, 6 h, read-out: pMLKL IC50, HT29-L23 cells; necroptosis induced with TNFα, SMAC mimetic and Z-VAD, 6 h; maximal inhibition defined by Nec1s
property_measured: IC50 (nM)
Dear colleague, please return just the value in nM, with no unit written.

compound	units	IC50
[2H]C(O)(c1ccc(C(F)F)cc1)C(F)(F)CNC(=O)c1c(Cl)ccc(-c2ccn3nc(N)nc3c2)c1F (single isomer, unassigned) [Example 311]	nM	0.8
Cc1ccc(-c2ccn3nc(N)nc3c2)c(F)c1C(=O)NCCC(=O)c1ccc(Cl)cc1 [Example 143]	nM	2.4
COc1ccc(-c2ccn3nc(N)nc3c2)c(F)c1C(=O)NCC[C@@H](O)c1ccc(Cl)cc1 [Example 148]	nM	17
Cc1ccc(-c2ccn3nc(N)nc3c2)c(F)c1C(=O)NCC(F)(F)C(OP(=O)(O)O)c1ccc(F)cc1 (racemic) [Example 161]	nM	135
Cc1ccc(-c2ccn3nc(N)nc3c2C)c(F)c1C(=O)NCC[C@H](O)c1ccc(Cl)cc1 [compound 134]	nM	1.5
Nc1nc2cc(-c3ccc(Cl)c(C(=O)NC[C@H](F)[C@@H](O)c4ccc(F)cc4)c3F)ccn2n1 (single isomer, unassigned) [Example 296]	nM	22

--- query ---
For Cc1ccc(-c2ccn3nc(N)nc3c2F)c(F)c1C(=O)NCC[C@H](O)c1ccc(Cl)cc1 [Example 132] on MLKL phosphorylation in HT29-L23 human colorectal adenocarcinoma cells, measured IC50 was 1.1

====

system: MLKL phosphorylation in HT29-L23 human colorectal adenocarcinoma cells; test: MLKL phosphorylation high-content assay; type: cell-based; settings: Homo sapiens, 6 h, read-out: pMLKL IC50, HT29-L23 cells; necroptosis induced with TNFα, SMAC mimetic and Z-VAD, 6 h; maximal inhibition defined by Nec1s
property_measured: pIC50
Please note pIC50 is a logarithmic value: minus log10 of concentration in mol/L. Answer with that number alone.

compound	pIC50
[2H]C([2H])([2H])c1ccc(-c2ccn3nc(N)nc3c2)c(F)c1C(=O)NCC(F)(F)C(O)c1ccc(F)cc1 (stereo not shown)	9.10
Nc1nc2cc(-c3ccc(Cl)c(C(=O)NCC(F)(F)[C@@H](F)c4ccc(F)cc4)c3F)ccn2n1	8.96
Nc1nc2cc(-c3ccc(Cl)c(C(=O)NCCC(O)c4ccc(Cl)cn4)c3F)ccn2n1 (single isomer, unassigned) [Example 82]	7.59
Cc1ccc(-c2ccn3nc(N)nc3c2)c(F)c1C(=O)NCC(F)(F)Cc1ccc(F)cc1	9.70
Nc1nc2cc(-c3ccc(Cl)c(C(=O)NCC(F)(F)C(O)c4ccc(Cl)c(Cl)n4)c3F)ccn2n1 (single isomer, unassigned)	7.96
Cc1ccc(-c2ccn3nc(N)nc3c2)c(F)c1C(=O)NCC(F)(F)C(C)(O)c1ccc(Cl)cc1 (single isomer, unassigned)	9.05

Recorded result, Cc1ccc(-c2ccn3nc(N)nc3c2)c(F)c1C(=O)NCC(F)(F)C(O)c1ccc(Cl)cc1 (stereo not shown) , pIC50: 9.15
